# SYSTEM NAME: PD-L1 His protein / PD-1 Fc protein (Homo sapiens (Human), UniProt Q9NZQ7)
# Sequence (Q9NZQ7 19-238): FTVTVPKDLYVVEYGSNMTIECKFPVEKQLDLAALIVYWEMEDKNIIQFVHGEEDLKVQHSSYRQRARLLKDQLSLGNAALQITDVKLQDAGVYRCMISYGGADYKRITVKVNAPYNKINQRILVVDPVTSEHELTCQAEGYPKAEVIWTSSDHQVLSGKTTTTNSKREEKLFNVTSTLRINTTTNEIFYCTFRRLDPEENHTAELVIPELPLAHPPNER
# ASSAY METHOD TEXT: HTRF assay (PD-1/PD-L1 interaction)
# CONDITION PARAMETERS: PD-L1 His 6 nM, PD-1 Fc 6 nM; inhibitors diluted 3-fold from 20 μM
PROPERTY MEASURED: IC50 (nM)
# output: bare number, implied unit nM

                                   molecule  unit_of_measure  measurement
0  CC(=O)NCCNC1COc2cc(OCc3cccc(-c4ccccc4)c3C)ccc21 (stereo not drawn) [Compound 16A]               nM         3600
1  Cc1c(COc2ccc3c(c2)C[C@H](O)[C@H]3NCCN2CCOCC2)cccc1-c1ccccc1 [Compound 10E_2]               nM         1080
2  CC(=O)NCCNC1CCc2cc(OCc3cccc(-c4ccccc4)c3C)ccc21 (stereo not drawn) [Compound 16C]               nM          379

Prompt: Given the molecule Cc1c(COc2ccc3c(c2)C[C@H](O)[C@@H]3NCCO)cccc1-c1ccccc1 [Compound 10F_1] , what is its reported IC50?
Completion: 1320

Prompt: Next record, please: CC(=O)NCCN[C@@H]1c2ccc(OCc3cccc(-c4ccc5c(c4)OCCO5)c3C)cc2C[C@@H]1O [Compound 10B_1]
Completion: 3140

Prompt: Next record, please: CC(=O)NCCN[C@H]1c2ccc(OCc3cccc(-c4ccccc4)c3C)cc2C[C@H]1O [Compound 10A_l_1]
Completion: 863

Prompt: Next record, please: CC(=O)NCCNC1COc2cc(OCc3cccc(-c4ccc5c(c4)OCCO5)c3C)ccc21 (stereo not drawn) [Compound 16B]
Completion: 3800

Prompt: Next record, please: CC(=O)NCCN[C@@H]1c2ccc(OCc3cccc(-c4ccccc4)c3C)cc2C[C@@H]1O [Compound 10A_l_2]
Completion: 5090

Prompt: Next record, please: Cc1c(COc2ccc3c(c2)C[C@H](O)C3NCCN2CCN(C)CC2)cccc1-c1ccccc1 (stereo partly drawn) [Compound 10D]
Completion: 5150

Prompt: Next record, please: CC(=O)NCCN[C@@H]1c2ccc(OCc3cccc(-c4ccccc4)c3C)cc2C[C@@H]1O [Compound 10A_l]
Completion: 1080

Prompt: Next record, please: CC(=O)NCCNC1CCc2cc(OCc3cccc(-c4ccc5c(c4)OCCO5)c3C)ccc21 (stereo not drawn) [Compound 16D]
Completion: 323

Prompt: Next record, please: Cc1c(COc2ccc3c(c2)C[C@H](O)[C@@H]3NCCN2CCOCC2)cccc1-c1ccccc1 [Compound 10E_1]
Completion: 7780

Prompt: Next record, please: Cc1c(COc2ccc3c(c2)C[C@H](O)[C@H]3NCCO)cccc1-c1ccccc1 [Compound 10F_2]
Completion: 1170

Prompt: Next record, please: CC(=O)NCCN[C@H]1c2ccc(OCc3cccc(-c4ccccc4)c3C)cc2C[C@@H]1O [Compound 10A_2]
Completion: 204

Prompt: Next record, please: CC(=O)NCCN[C@H]1c2ccc(OCc3cccc(-c4ccccc4)c3C)cc2C[C@@H]1O [Compound 10A_2_2]
Completion: 170

Prompt: Next record, please: CC(=O)NCCN[C@@H]1c2ccc(OCc3cccc(-c4ccccc4)c3C)cc2C[C@H]1O [Compound 10A_2_1]
Completion: 5000
